- Tested on: Moloney murine sarcoma virus
- runDescription: Antiviral activity against Moloney sarcoma virus replication infected in mouse […] cells assessed as virus-induced transformation of cells at <=100 uM measured on day 6 postinfection
- Format: functional, organism-based
Calls of active or inactive are those of the source. No cut-off for these calls is given here.
experimentalReadout: Activity

- O=c1c(F)c(O)ccn1[C@@H]1O[C@H](CO)[C@@H](O)[C@@H]1O: inactive
- CC1(O)C=CN([C@H]2C[C@H](O)[C@@H](CO)O2)C(=O)C1(F)F (stereo partly drawn): inactive
- NC(=O)Cc1ccn([C@@H]2O[C@H](CO)[C@@H](O)[C@H]2O)c(=O)c1F: inactive

---

- runDescription: Cytostatic activity against human Molt4/C8 cells at <=500 uM after 3 days by Coulter counting analysis
- Type: ADME, cell-based
- runConditions: molt-4, 72 h
experimentalReadout: Activity

* O=C1N([C@@H]2O[C@H](CO)[C@@H](O)[C@H]2O)C=CC(O)(c2ccccc2)C1(F)F (stereo partly drawn) | Not Active
* O=c1c(F)c(O)ccn1[C@@H]1O[C@H](CO)[C@@H](O)[C@@H]1O | Not Active
* CC1(O)C=CN([C@H]2C[C@H](O)[C@@H](CO)O2)C(=O)C1(F)F (stereo partly drawn) | Not Active

---

- runDescription: Cytostatic activity against human Molt4/C8 cells after 3 days by Coulter counting analysis
- Type: ADME, cell-based, MOLT-4
experimentalReadout: CC50 at 72 h (µM)
Could you give me the number in µM? Just the number is fine.

# CC50 at 72 h of `O=c1c(F)c(O)ccn1[C@@H]1O[C@H](CO)[C@@H](O)[C@H]1O` = 4.4

---

- runDescription: Cytostatic activity against mouse L1210 cells after 2 days by Coulter counting analysis
- Type: ADME, cell-based
experimentalReadout: CC50 at 48 h (µM)
Could you give me the number in µM? Just the number is fine.

# CC50 at 48 h of `O=c1c(F)c(O)ccn1[C@@H]1O[C@H](CO)[C@@H](O)[C@H]1O` = 6.7

---

- runDescription: Cytostatic activity against human CEM cells after 3 days by Coulter counting analysis
- Type: cell-based, CCRF-CEM
experimentalReadout: CC50 at 72 h

# CC50 at 72 h of `O=c1c(F)c(O)ccn1[C@@H]1O[C@H](CO)[C@@H](O)[C@H]1O` = 9.6 µM

The measurements presented in this section are drawn from ChEMBL document CHEMBL1138488.
